Data origin: PubChem BioAssay (NCI)

- System: SNB-75 CNS
- experimental-details: NCI-60 one-dose screen, 48 h (100 = growth as untreated, 0 = no growth, -100 = all killed)
- test-conditions: 10 µM unless noted
This is part of a sample that, as a whole, favours compounds with a hit. Of some 83,000 tested, about 20% had one in any assay.
value-type: growth (%)
Provide only the numeric value, understood in %.

- compound: "O=C(O)COc1ccc(F)cc1"
  unit-abbrev: "%"
  growth: 99.8
- compound: "COC(=O)[C@@H](Cc1c[nH]c2ccccc12)NC(=O)[C@H](Cc1ccccc1)NCc1ccncc1"
  unit-abbrev: "%"
  growth: 93
- compound: "NS(=O)(=O)Oc1cccc(-c2nc3sccn3c2-c2ccccc2)c1"
  unit-abbrev: "%"
  growth: -9.42
- compound: "O=C(Nc1ncc(Cc2ccc(Cl)cc2)s1)C1=NCCCCN1"
  unit-abbrev: "%"
  growth: 102
- compound: "COc1ccc(C(c2cc(OC)c(OC)c(OC)c2)n2cncn2)cc1O (stereo unspecified)"
  unit-abbrev: "%"
  growth: 48.6
- compound: "Cc1cc(N2CCOCC2)nc(N(CCCNc2ccnc3cc(Cl)ccc23)Cc2ccc3c(c2)OCO3)n1"
  unit-abbrev: "%"
  growth: -43.3
- compound: "COc1cc(OC)cc(C(=O)Nc2cnc(Nc3ccc(N4CCOCC4)nc3)nc2Oc2ccc(C(F)(F)F)cc2)c1"
  unit-abbrev: "%"
  growth: -14.5
- compound: "C=C(c1ccc(OC)c(/C=C/C(=O)c2cc(OC)c(OC)c(OC)c2)c1)c1cc(OC)c(OC)c(OC)c1"
  unit-abbrev: "%"
  growth: 49.8

Field: next compound
INPUT: Entry under review: CCCCCCCCOC(=O)c1c(C)[nH]c(/C=C2\N=C(c3ccc[nH]3)C=C2OC)c1C . Reported growth?
OUTPUT: -20.8

---

- Tested on: SK-MEL-28 melanoma
- experimental-details: NCI-60 one-dose screen, 48 h
- test-conditions: 10 µM unless noted
Compounds without any hit were thinned out: in the full panel of roughly 83,000, 20% have a hit. The source made the active and inactive calls. How the source made its calls: active means growth percent below 10; inactive means the rest.
Reply using exactly one outcome from 1 (yes) = active, 0 (no) = inactive

- compound: "C=C(c1ccc(C(=O)O)c(F)c1)c1cc2c(cc1C)C(C)(C)C=CC2(C)C"
  assayed-system: "SK-MEL-28 melanoma"
  class: "0 (no)"

INPUT: Recorded test call requested for O=C1/C(=C/c2ccccc2)COc2ccc(O)cc21
OUTPUT: 0 (no)

INPUT: Item: O=C1/C(=C/c2cccc(Br)c2)COc2ccc(O)c(O)c21
OUTPUT: 1 (yes)

INPUT: Item: CCNCCNc1c(C)c(-c2ccc(C(F)(F)F)cc2)c(C#N)c2nc3ccccc3n12
OUTPUT: 0 (no)

INPUT: Item: CNC(=O)c1cc(Oc2cccc3nc(NC(=O)Nc4ccc(F)cc4F)ccc23)ccn1
OUTPUT: 0 (no)

INPUT: Item: Cc1ccccc1NC(=O)Cn1cc(CN2CCN(c3ccnc4cc(Cl)ccc34)CC2)nn1
OUTPUT: 0 (no)

INPUT: Item: Cn1nc(-c2ccc(Cl)cc2)nc2c(=O)n(C)c(=O)nc1-2
OUTPUT: 1 (yes)

INPUT: Item: C=C(C[n+]1ccccc1)[C@@H]1CC[C@]2(C(=O)OC)CC[C@]3(C)[C@H](CC[C@@H]4[C@@]5(C)CCC(=O)C(C)(C)[C@@H]5CC[C@]43C)[C@@H]12
OUTPUT: 0 (no)

INPUT: Item: CCCCN(CCC#N)C(N)=O
OUTPUT: 0 (no)

INPUT: Item: Cc1cc2c(C(C)C)c(O)c(O)c(/C=N/O)c2c(O)c1-c1c(C)cc2c(C(C)C)c(O)c(O)c(/C=N/O)c2c1O
OUTPUT: 0 (no)

INPUT: Item: CCN1CCN(c2nc(NNC(=O)c3ccc(OC)cc3)nc(N3CCN(C(c4ccccc4)c4ccccc4)CC3)n2)CC1
OUTPUT: 0 (no)

INPUT: Item: COc1cc2c(c(OC)c1OC)C(=O)CC(c1cccc(C(=O)Nc3ccc(Br)cc3)c1)O2 (stereo not given)
OUTPUT: 0 (no)

INPUT: Item: CCCCCCCC/C=C\CCCCCCCCOc1ccc(CC(=O)NCC[N+]2(C)CCCC2)cc1
OUTPUT: 0 (no)

INPUT: Item: COc1cc(/C=C2\C(=O)N(CCOc3cc(O)c4c(=O)cc(-c5ccccc5)oc4c3)c3ccccc32)cc(OC)c1O
OUTPUT: 0 (no)

INPUT: Item: Cc1[nH]c(C(=O)Nc2ccc(C(N)=O)cc2OC(C)C)c(Cl)c1Cl
OUTPUT: 0 (no)
